- tested_system: human CB2 (Homo sapiens)
- Construct: expressed in transfected cells; host or cells: HEK-293T (transient transfection, membrane preparation)
- Sequence (P34972 whole entry): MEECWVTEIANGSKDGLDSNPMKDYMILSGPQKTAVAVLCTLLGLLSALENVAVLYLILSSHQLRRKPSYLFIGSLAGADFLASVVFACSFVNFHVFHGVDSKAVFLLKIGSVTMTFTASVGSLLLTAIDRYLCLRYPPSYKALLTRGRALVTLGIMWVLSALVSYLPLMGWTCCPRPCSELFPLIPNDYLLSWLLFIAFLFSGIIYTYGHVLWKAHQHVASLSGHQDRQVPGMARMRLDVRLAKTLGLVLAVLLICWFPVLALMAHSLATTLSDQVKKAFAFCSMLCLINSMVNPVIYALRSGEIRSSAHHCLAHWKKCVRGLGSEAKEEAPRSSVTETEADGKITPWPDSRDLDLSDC
- measurement_protocol: CB2 receptor binding assay, block of [3H]-CP 55,940 binding
- experimental_setup: membranes of HEK-293T cells transfected with human CB2 cDNA; 1.5 nM [3H]-CP 55,940
- Protocol: Membrane preparation—HEK-293T cells were cultured according to ATCC (Manassas, Va.) guidelines and transfected with human CB2 cDNA (SEQ ID NO:1) (Genbank X74328), operably linked to the SV40 promoter, using Polyfect (Qiagen, Valencia, Calif.) or Fugene (Roche, Nutley, N.J.) according to manufacturer's instructions. […] The membrane concentration was determined using a BioRad (Hercules, Calif.) protein assay dye reagent according to manufacturer's instructions. […]
Quick list: pKi per entry.
Please reply with the value in numeric form only.

Some entries whose results are on file:
# compound, assay_result
rows = [
    ("OCc1ccn2c(Nc3ccc4c(c3)OCCO4)c(-c3c(F)cccc3Cl)nc2c1 [CR-102]", 6.4),
    ("Cc1ccc2nc(-c3c(C)cccc3C)c(Nc3ccc4c(c3)OCCO4)n2c1 [CR-49]", 7.3),
    ("CC(C)Oc1cccc2nc(-c3c(F)cccc3Cl)c(Nc3ccc4c(c3)OCCO4)n12 [CR-29]", 7.9),
    ("Cc1cc(OCCF)cc(C)c1-c1nc2cccc(F)n2c1Nc1ccc2c(c1)OCCO2 [CR-36]", 7.7),
    ("Fc1cccnc1-c1nc2ccccn2c1Nc1ccc2c(c1)OCCO2 [CR-113]", 6.3),
    ("CCOc1cccc2nc(-c3c(F)cccc3Cl)c(Nc3ccc4c(c3)OCCO4)n12 [CR-24]", 8.1),
    ("COc1cccc2nc(-c3c(F)cccc3F)c(Nc3ccc4c(c3)OCCO4)n12 [CR-19]", 8.4),
    ("COc1cc(-c2nc3ccc(C)cn3c2Nc2ccc3c(c2)OCCO3)ccc1O [CR-81]", 6.7),
    ("FCCOc1cccc2nc(-c3c(F)cncc3F)c(Nc3ccc4c(c3)OCCO4)n12 [CR-7]", 7.4),
    ("Cc1cccc(C)c1-c1nc2ccccn2c1Nc1ccc2c(c1)OCCO2 [CR-51]", 7.3),
]

INPUT: GET /values?readout=pKi&item= CNc1cccc2nc(-c3c(F)cccc3Cl)c(Nc3ccc4c(c3)OCCO4)n12 [CR-43]
OUTPUT: 7.5

INPUT: Which pKi is reported for this compound? COc1cccc2nc(-c3c(F)cccc3Cl)c(Nc3ccc4c(c3)OCCO4)n12 [CR-14]
OUTPUT: 8.7

INPUT: Reported pKi for COc1cc(-c2nc3cc(C)ccn3c2Nc2ccc3c(c2)OCCO3)ccc1O [CR-60] : what is it?
OUTPUT: 7.1

INPUT: # pKi lookup, item COc1cccc2nc(-c3c(F)ccc(OCF)c3Cl)c(Nc3ccc4c(c3)OCCO4)n12 [CR-11]
OUTPUT: 9.1

INPUT: Item under review: Cc1cccc2nc(-c3c(F)cccc3Cl)c(N(C)c3ccc4c(c3)OCCO4)n12 [CR-124] . Reported pKi?
OUTPUT: 6.0

INPUT: # get_value(readout='pKi', item= C=COc1ccc2nc(-c3c(F)cccc3Cl)c(Nc3ccc4c(c3)OCCO4)n2c1 [CR-30] )
OUTPUT: 7.8

INPUT: Reported pKi for Fc1cccc(Cl)c1-c1nc2cnccn2c1Nc1ccc2c(c1)OCCO2 [CR-103] : what is it?
OUTPUT: 6.4
